tested on: PC-3; assay: NCI 60 panel: PC-3 (Prostate Cancer); format: cell-based; settings: read-out: LC50 (the source's name)
quantity: CC50

Could you share which CC50 value was measured for "COc1ccccc1Nc1nc(-c2cc3cccc(N)c3oc2=O)cs1" ? > 100 µM

* * *

test system: MALME-3M; experiment: NCI 60 panel: MALME-3M (Melanoma); assay type: cell-based; conditions: read-out: LC50 (the source's name)
quantity: CC50

Suppose we examine the molecule "COc1ccccc1Nc1nc(-c2cc3cccc(N)c3oc2=O)cs1" ; what CC50 value has been reported? > 100 µM

* * *

test system: T-47D; assay: NCI 60 panel: T-47D (Breast Cancer); assay type: cell-based; conditions: read-out: LC50 (the source's name)
quantity: CC50

What does the record list as CC50 for "COc1ccccc1Nc1nc(-c2cc3cccc(N)c3oc2=O)cs1" ? > 100 µM

* * *

test system: ARH-77; assay: Complementary DBM in vitro profiling: ARH-77 (Hematologic Cancer); assay type: cell-based; conditions: read-out: LC50 (the source's name)
quantity: CC50

Param item = "COc1ccccc1Nc1nc(-c2cc3cccc(N)c3oc2=O)cs1" ; retrieve measured CC50. > 30 µM

* * *

Tested on: SK-OV-3
Description: TGI means the drug concentration resulting in total growth inhibition or “cytostasis.” LC50 is the concentration of drug resulting in a 50% reduction in the measured cytosolic ATP at the end of the drug treatment as compared to that at the beginning, indicating a net loss of cells following treatment (cytotoxicity). […]
quantity: CC50

Sample "COc1ccccc1Nc1nc(-c2cc3cccc(N)c3oc2=O)cs1" — what was its CC50? > 100 µM

* * *

system: UACC-257; assay: NCI 60 panel: UACC-257 (Melanoma); format: cell-based; conditions: read-out: LC50 (the source's name)
quantity: CC50

Bench note: what CC50 did "COc1ccccc1Nc1nc(-c2cc3cccc(N)c3oc2=O)cs1" show? > 100 µM

* * *

system: MDA-MB-435; assay: NCI 60 panel: MDA-MB-435 (Melanoma); format: cell-based; conditions: read-out: LC50 (the source's name)
quantity: CC50

State the recorded CC50 for this entry: "COc1ccccc1Nc1nc(-c2cc3cccc(N)c3oc2=O)cs1" 69.5 µM

* * *

test system: RXF 393; experiment: NCI 60 panel: RXF 393 (Renal Cancer); type: cell-based; settings: read-out: LC50 (the source's name)
quantity: CC50 (µM)
// note: answer is a bare numeric in µM

Fill blank: measured CC50 of the molecule COc1ccccc1Nc1nc(-c2cc3cccc(N)c3oc2=O)cs1 [Compound DBM 228] is ____. 52.6

* * *

tested on: HOP-62; assay: NCI 60 panel: HOP-62 (Non-Small Cell Lung Cancer); type: cell-based; details: read-out: LC50 (the source's name)
quantity: CC50

Dear colleague, I am looking for the recorded CC50 of the following compound: COc1ccccc1Nc1nc(-c2cc3cccc(N)c3oc2=O)cs1 [Compound DBM 228] > 100 µM

* * *

system: 786-0; test: NCI 60 panel: 786-0 (Renal Cancer); type: cell-based; settings: read-out: LC50 (the source's name)
quantity: CC50 (µM)
All answers are understood in µM, so give the number only.

Requested read-out: CC50. Entry: "COc1ccccc1Nc1nc(-c2cc3cccc(N)c3oc2=O)cs1" 89.4
